Data provenance: patent US9040534B2

Target: P2X7 (Homo sapiens (Human))
Experiment: Ca2+ flux (FLIPR) in 1321N1 cells expressing recombinant human P2X7 channel
Format: cell-based
Conditions: 250 μM BzATP
pIC50: −log10 of the molar value.

{"columns": ["MOLECULE", "VALUE_COMPARATOR", "pIC50"],
 "data": [
  ["O=C1c2nnc(-c3ncc(F)cn3)n2CC(C2CC2)N1Cc1cccc(C(F)(F)F)c1Cl (racemic)", "=", 8.10],
  ["O=C1c2nnc(-c3cnccn3)n2CCN1Cc1c(Cl)cccc1Cl", "=", 6.03],
  ["CS(=O)(=O)c1cc(Cl)ccc1CN1CCn2c(nnc2-c2cnccn2)C1=O", "=", 5.47],
  ["CC[C@H]1Cn2c(nnc2-c2ccc(F)cn2)C(=O)N1Cc1cccc(C(F)(F)F)c1Cl", ">", 9.00],
  ["C[C@H]1Cn2c(nnc2-c2cnccn2)C(=O)N1Cc1cc2c(cc1Cl)OCO2", "=", 6.47],
  ["O=C1c2nnc(-c3cnccn3)n2CCN1Cc1cccc(C(F)(F)F)c1Cl", "=", 7.35],
  ["CC[C@H]1Cn2c(nnc2-c2cc[nH]n2)C(=O)N1Cc1cccc(C(F)(F)F)c1Cl", "=", 8.82],
  ["C[C@H]1Cn2c(nnc2C2CCCNC2)C(=O)N1Cc1cccc(C(F)(F)F)c1Cl (some centres unmarked)", "<", 5.00]
]}

----------
Listing of recorded pIC50 by entry.
Molecular target: P2X7 (Homo sapiens (Human), UniProt Q99572)
Sequence (Q99572 whole entry): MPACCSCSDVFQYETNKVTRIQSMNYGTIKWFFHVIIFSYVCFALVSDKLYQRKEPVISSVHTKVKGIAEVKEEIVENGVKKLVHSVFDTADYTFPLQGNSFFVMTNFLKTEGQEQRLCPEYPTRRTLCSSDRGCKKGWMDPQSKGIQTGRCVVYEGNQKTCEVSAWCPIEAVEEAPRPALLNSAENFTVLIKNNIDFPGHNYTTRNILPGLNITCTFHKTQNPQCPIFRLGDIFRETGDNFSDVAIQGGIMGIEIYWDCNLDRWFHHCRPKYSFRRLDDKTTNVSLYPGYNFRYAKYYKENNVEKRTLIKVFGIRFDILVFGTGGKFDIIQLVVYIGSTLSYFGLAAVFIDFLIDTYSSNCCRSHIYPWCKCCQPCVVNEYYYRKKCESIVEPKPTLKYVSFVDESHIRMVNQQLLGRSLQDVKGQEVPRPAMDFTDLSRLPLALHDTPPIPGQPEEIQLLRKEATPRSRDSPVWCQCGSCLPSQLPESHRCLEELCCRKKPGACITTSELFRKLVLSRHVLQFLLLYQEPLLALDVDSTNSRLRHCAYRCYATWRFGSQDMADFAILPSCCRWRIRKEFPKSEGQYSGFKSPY
Assay: Ca2+ flux (FLIPR) in 1321N1 cells expressing recombinant human P2X7 channel
Type: cell-based
Conditions: 250 μM BzATP
pIC50: −log10 of the molar value.

{"columns": ["MOLECULE", "pIC50"],
 "data": [
  ["C[C@H]1Cn2c(nnc2C2CCCCC2)C(=O)N1Cc1cccc(C(F)(F)F)c1Cl [Example 51]", 6.12],
  ["Cc1nc(C)c(-c2nnc3n2C[C@H](C)N(Cc2cccc(C(F)(F)F)c2Cl)C3=O)s1 [Example 39]", 7.65],
  ["C[C@H]1Cn2c(nnc2-c2ccn(C)n2)C(=O)N1Cc1cccc(C(F)(F)F)c1Cl [Example 23]", 8.60],
  ["C[C@H]1Cn2c(nnc2C2CCC2)C(=O)N1Cc1cccc(C(F)(F)F)c1Cl [Example 49]", 6.41],
  ["C[C@H]1Cn2c(nnc2-c2cncc(F)c2)C(=O)N1Cc1cccc(C(F)(F)F)c1Cl [Example 45]", 7.00],
  ["CC(c1cccc(C(F)(F)F)c1Cl)N1CCn2c(nnc2-c2cnccn2)C1=O (racemic) [Example 4]", 5.57],
  ["CC[C@H]1Cn2c(nnc2-c2cnccn2)C(=O)N1Cc1cccc(C(F)(F)F)c1Cl [Example 71]", 9.52],
  ["C[C@H]1Cn2c(nnc2-c2cnccn2)C(=O)N1Cc1ccccc1[N+](=O)[O-] [Example 89]", 7.58]
]}

----------
The molecules listed here are annotated with their pIC50.
Molecular target: P2X7 (Homo sapiens (Human), UniProt Q99572)
Test: Ca2+ flux (FLIPR) in 1321N1 cells expressing recombinant human P2X7 channel
Assay type: cell-based
Details: 250 μM BzATP
pIC50: −log10 of the molar value.

{"columns": ["SMILES_NOTATION", "VALUE_COMPARATOR", "pIC50"],
 "data": [
  ["C[C@H]1Cn2c(nnc2-c2ccc(F)cn2)C(=O)N1Cc1cccc(C(F)(F)F)c1Cl", "=", 9.05],
  ["C[C@H]1Cn2c(nnc2-c2ccccn2)C(=O)N1Cc1cccc(C(F)(F)F)c1Cl", ">", 9.00],
  ["C[C@H]1Cn2c(nnc2-c2cn[nH]c2)C(=O)N1Cc1cccc(C(F)(F)F)c1Cl", "=", 7.02],
  ["C[C@H]1Cn2c(nnc2-c2cccnc2)C(=O)N1Cc1cccc(C(F)(F)F)c1Cl", "=", 9.00],
  ["C[C@H]1Cn2c(nnc2-c2csc(C(F)(F)F)n2)C(=O)N1Cc1cccc(C(F)(F)F)c1Cl", "=", 6.01],
  ["Cc1cc(-c2nnc3n2C[C@H](C)N(Cc2cccc(C(F)(F)F)c2Cl)C3=O)n[nH]1", "=", 8.92],
  ["C[C@H]1Cn2c(nnc2-c2cccnn2)C(=O)N1Cc1cccc(C(F)(F)F)c1Cl", "=", 6.75],
  ["Cc1cccc(C)c1CN1C(=O)c2nnc(-c3cnccn3)n2C[C@@H]1C", "=", 7.37]
]}
